Attribute: melting point

The cases that follow already have their melting point on record.
>>> result("Cc1c(S(=O)(=O)Nc2ccc(-c3nc(CO)cs3)cc2S(C)(=O)=O)sc2ccc(F)cc12")
"209 to 210 °C"
>>> result("C[C@@]1(Cn2cc([N+](=O)[O-])nc2Br)CO1")
"93 to 94 °C"
>>> result("C#CCOc1nsc(-c2ccccc2)n1")
"66.9 °C"
>>> result("CC(=O)n1ccc(-c2ccc(C(=O)N3Cc4cccn4Cc4ccccc43)cc2)n1")
"192 to 194 °C"
>>> result("O=C(CCO)N[C@H]1CC[C@H](CCN2CCC(c3cccc4c3CCO4)CC2)CC1")
"158 °C"

Exam item: For O=C1CCC(N2C(=O)c3ccc(CNC(=O)Nc4ccc(Cl)c(Cl)c4)cc3C2=O)C(=O)N1 (stereo not drawn) , what is its reported melting point?
Marked response: 290 to 292 °C

Exam item: For `CN1CCN(c2ccccc2C=CC(=O)Nc2ccc(Cl)c(Cl)c2)CC1` , what is its reported melting point?
Marked response: 192 to 193 °C

Exam item: For `CCOP(=O)(OCC)C(Sc1cc(C(C)(C)C)c(O)c(C(C)(C)C)c1)P(=O)(OCC)OCC` , what is its reported melting point?
Marked response: 78 to 80 °C

Exam item: For C=CCOc1cc2c(c(Cl)c1Cl)C(=O)C(C)(c1ccccc1)C2 (stereo not drawn) , what is its reported melting point?
Marked response: 105 °C

Exam item: For `CSC(=O)C(=O)c1cc(NC=O)ccn1` , what is its reported melting point?
Marked response: 145 to 148 °C

Exam item: For `N=C(NS(=O)(=O)C=Cc1ccc(Cl)c(Cl)c1)c1ccccc1` , what is its reported melting point?
Marked response: 144 to 146 °C

Exam item: For `O=C(/C=C/c1ccccc1)NCCC1CCN(Cc2ccccc2)CC1` , what is its reported melting point?
Marked response: 125 to 127 °C

* * *

VALUE TYPE: melting point

The cases that follow already have their melting point on record.
>>> result("COC(=O)C1=Cc2cc(-c3ccc(Cl)cc3)ccc2S(=O)(=O)CC1")
"168 to 170 °C"
>>> result("CC(C)CC1(C(CCN2C(=O)c3cccc(F)c3C2=O)C(=O)NO)CCN(CCc2ccccc2)C1=O (stereo unspecified)")
"145 to 146 °C"
>>> result("CCc1cc(OCc2ccc(-c3ccccc3C(=O)O)cc2)c2ccccc2n1")
"204 to 205 °C"
>>> result("CC(C(N)=O)c1ccc2c(c1)C(=O)Cc1ccc(F)cc1S2 (stereo unspecified)")
"176 to 178 °C"
>>> result("Cc1c(/C=N/OCc2ccc(C(=O)O)c(Br)c2)c2ccccc2n1C")
"165 to 166 °C"

Would you kindly look at the next entry?
Exam item: For `O=S1(=O)NCN(C2CC2)c2cc(Br)cc(F)c21` , what is its reported melting point?
Marked response: 195 to 198 °C

* * *

Attribute: melting point

>>> result("Cc1nc(CC(O)Cn2cnc3c2c(=O)n(C)c(=O)n3C)no1 (centres undefined)")
"148 to 150 °C"
>>> result("O=C1C=C(O)CC(c2ccccc2)O1 (centres undefined)")
"145 to 146 °C"
>>> result("NC(=S)c1cn(COC(CO)CO)c2ncnc(N)c12")
"180 to 181 °C"
>>> result("C=CCOC(=O)Nc1cc(C(C)(C)C)[nH]n1")
"131 to 132 °C"
>>> result("OC1CCCCC1Oc1cccc(COc2cccc3cccnc23)c1 (centres undefined)")
"109 to 110 °C"

Exam item: For `CCN(CC)C(=O)COc1ccc(CCCOC(=O)NCC2CC2)c(Oc2ncc(C(F)(F)F)cc2Cl)c1` , what is its reported melting point?
Marked response: 94 to 94.5 °C

Exam item: For `CC(C)OC(=O)c1nc(Cl)sc1Cl` , what is its reported melting point?
Marked response: 46 °C

Exam item: For `CSc1ccc2cc(O)ccc2c1` , what is its reported melting point?
Marked response: 120 to 122 °C

Exam item: For `Cc1cc(C)c2cccc(OCc3c(Cl)ccc(S(=O)(=O)N4CCC[C@H]4C(=O)NCc4ccc(C=NN)cn4)c3Cl)c2n1` , what is its reported melting point?
Marked response: 128 to 130 °C

Exam item: For `COc1ccc(-c2sc(Nc3cnccn3)nc2C)cc1S(N)(=O)=O` , what is its reported melting point?
Marked response: 378 °C

Exam item: For `Cc1ccc(S(=O)(=O)n2c(CCCC(=O)O)cc3nc(Cl)ccc32)cc1` , what is its reported melting point?
Marked response: 172 °C

Exam item: For COc1ccc(C(C)(O)Cn2cc[nH]c2=O)cc1OC1CCCC1 (centres undefined) , what is its reported melting point?
Marked response: 136 °C

Exam item: For `CN(CCCNC(=O)c1cccc2nc3ccc(Cl)cc3nc12)CCCNC(=O)c1cccc2nc3ccc(Cl)cc3nc12` , what is its reported melting point?
Marked response: 210 to 212 °C

Exam item: For `Oc1ncnc2c1CCOc1ccccc1-2` , what is its reported melting point?
Marked response: 241 to 243 °C
